- Test system: U251 CNS
- testMethodNotes: NCI-60 one-dose screen, 48 h
- protocolConditions: 10 µM unless noted
- Protocol: Growth inhibition of the U251 human tumor cell line is measured as a screen for anti-cancer activity. Cells are grown in 96 well plates and exposed to the test compound for 48 hours. Compounds are tested at a single concentration, which is 10^-5 M for most compounds. The reported endpoint is percent growth (GI% or GIPRCNT), where numbers from 0 - 100% represent growth inhibition, and numbers from -100% - 0 represent cell death. For example, a value of 40 represents 60% growth inhibition. […]
Compounds without any hit were thinned out: in the full panel of roughly 83,000, 20% have a hit. Calls of active or inactive are those of the source. How the source made its calls: active means growth percent below 10; inactive means the rest.
API: response.call in active, inactive

Entry N#CSCC1CC(O)(c2ccccc2)C(c2ccccc2)C(c2ccc(Cl)cc2)O1 (stereo not drawn) : call = ?
active

How did this test come out for `O=c1[nH]c(N2CCC(Cc3ccccc3)CC2)nc2sc3c(c12)CCCC3` ?
inactive

I'd appreciate the recorded outcome for `COC(=O)C1CCN(S(=O)(=O)c2ccc(-c3ccccc3)cc2)CC1` from this test.
inactive

What classification did `COc1cnc2c(c1)C(=O)c1c-2n(CCCN2CCCC2)c(=O)c2cc(F)ccc12` end up with in this test?
active

Entry `O[N+]1=CC=CCC1=S.On1ccccc1=S.[Zn]` : call = ?
active

How was `COc1ccc(CNC(=O)c2c(C)n([O-])c3ccccc3[n+]2=O)cc1` classified in this test?
inactive

Please let me know the test result on file for `COC(=O)c1c(NC(=O)CSc2nnnn2-c2ccc(OC)cc2)sc(C)c1C` .
inactive

Please let me know the test result on file for `O=C(Nc1ccc(Cl)cc1)Nc1nc2ccc(OC(F)(F)F)cc2o1` .
inactive

# lookup: test call for `COc1ccccc1NC(=O)c1sc2nc3c(cc2c1N)C(=O)CCC3`
inactive

Hi, do you know how `O=C1OC2(c3ccccc31)c1ccccc1-c1ccccc12` came out in this test?
inactive

Entry `Cc1cc2c(cc1C)[n+](Cc1ccc3ccccc3c1)cn2Cc1ccc2ccccc2c1` : call = ?
active

Record lookup: outcome of this test for `COc1ccc(CC(=O)Nc2nn3c(-c4cc(C(F)(F)F)cc(C(F)(F)F)c4)nnc3s2)cc1` ?
inactive

# lookup: test call for `Cc1n(Cc2ccc3ccccc3c2)c2ccccc2[n+]1Cc1ccc2ccccc2c1`
active

In this assay, the call recorded for `Cc1cc2ccccn2c1C(=O)c1ccc(C(=O)c2ccccc2)cc1` was what?
inactive

Lab log entry: `CN1CCN(CCCCCN=c2cc3c(=O)n(CCCCCN4CCN(C)CC4)c(=O)c4c(NCCCCCN5CCN(C)CC5)cc5c(O)n(CCCCCN6CCN(C)CC6)c(=O)c2c5c4-3)CC1` — outcome as called in the assay?
active

In this assay, the call recorded for `COc1ccc(-c2cc(-c3cccnc3)nc3sc(C(=O)Nc4ccccc4)c(N)c23)cc1OC` was what?
inactive

Could you please tell me the result logged for `COC(=O)[C@H](Cc1cnc[nH]1)NC(=O)[C@@H](NC(=O)Nc1cc(C(F)(F)F)cc(C(F)(F)F)c1)C(C)C` in this assay?
active

Outcome? `COc1cnc2c(c1)C(=O)c1c-2n(CCCN2CCC(O)CC2)c(=O)c2cc(F)ccc12`
active

Query: recorded result category for CC1(C)CC2(C)CC(=O)C1C(C(=O)O)C2C(=O)O (stereo not drawn) in this test
inactive

Hi team, can someone confirm the assay call for `COC(=O)c1cc2oc(/C=N\NC(=O)c3cc4oc(C)c(C)c4[nH]3)cc2[nH]1` ?
inactive

// outcome(item) with item = c1ccc2nc(N/N=C3\CCCCC3C3CCCCC3)ccc2c1 (stereo not drawn)
inactive

Which outcome was entered for the compound `C[C@H](C(=O)N[C@@H](Cc1ccc(-c2ccccc2)cc1)C(=O)NC1CC(C)(C)N(C)C(C)(C)C1)c1ccc(-c2ccccc2)c(F)c1` in this test?
active

Answer briefly: the call reported for `ICCC(c1ccccc1)(c1ccccc1)c1ccccc1` in this assay.
inactive

Any idea what this test logged for `O=C(/C=C/c1cccc(O)c1)c1cccc(-n2cc(-c3ccccc3)[nH]c2=O)c1` ?
active

Check the results log: what was the call for `O=C(CNC(=O)c1cccc2ccccc12)Nc1ccccc1Oc1ccc(O)cc1` ?
inactive

Per the records of this test, what outcome belongs to `COc1ccc(C(=O)COc2cccc(/C=C3\CSc4ccc(Cl)cc4C3=O)c2)cc1` ?
inactive

Entry `CC(C)Sc1nc(-c2ccc(Br)cc2)c(C#N)c(N2CCCCC2)n1` : call = ?
inactive

How did this test come out for `C[C@H](C(=O)N[C@@H](Cc1ccc(-c2ccccc2)cc1)C(=O)NC1CC(C)(C)NC(C)(C)C1)c1ccc(-c2ccccc2)c(F)c1` ?
active

Short answer needed: outcome of this test for `CN(C)c1ccc(-n2nc3ccccc3n2)cc1` ?
inactive

Look up the recorded call for `c1ccc(CN=C(NCc2ccccc2)NCc2ccccc2)cc1` in this test.
inactive

I would be grateful if you could indicate the recorded call for `O=C(Nc1nc2ccc(OC(F)(F)F)cc2s1)c1ccc(F)cc1` .
active

Please let me know the test result on file for O=c1ccn(C2CC=C(CO)O2)c(=O)[nH]1 (stereo not drawn) .
inactive

# lookup: test call for `C=CCNC(=O)/C(=C/c1cccc([N+](=O)[O-])c1)NC(=O)c1ccccc1`
inactive
